molecular target: Stromelysin-1 (Homo sapiens, UniProt P08254); assay: Inhibition of recombinant human Matrix metalloprotease-3
Sequence (P08254 whole entry): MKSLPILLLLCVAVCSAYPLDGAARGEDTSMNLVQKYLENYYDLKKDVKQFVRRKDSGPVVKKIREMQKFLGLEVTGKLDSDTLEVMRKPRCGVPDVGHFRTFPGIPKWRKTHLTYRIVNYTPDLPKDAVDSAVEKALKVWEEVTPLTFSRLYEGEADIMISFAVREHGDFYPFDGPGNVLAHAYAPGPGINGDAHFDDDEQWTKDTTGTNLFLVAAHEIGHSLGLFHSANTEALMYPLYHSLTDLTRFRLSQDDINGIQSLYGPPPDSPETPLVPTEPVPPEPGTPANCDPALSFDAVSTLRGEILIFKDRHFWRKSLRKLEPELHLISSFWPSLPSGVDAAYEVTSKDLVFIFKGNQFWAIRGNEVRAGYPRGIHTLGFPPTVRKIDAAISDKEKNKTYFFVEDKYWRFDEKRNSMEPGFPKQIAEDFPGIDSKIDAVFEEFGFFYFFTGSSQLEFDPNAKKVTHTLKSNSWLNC
RESULT_TYPE: Ki (µM)
Write it as a number; the unit µM goes unstated.

So, CCOP(=O)(N[C@H](CCC(=O)NCCc1ccccc1)C(=O)NO)c1ccc(OC)cc1 (some centres not stated) ? Its Ki was 0.00729

So, CCOP(=O)(N[C@H](CC(C)C)C(=O)NO)c1ccc(OC)cc1 (some centres not stated) ? Its Ki was 0.0698

----------
Please respond with reported pKi for every item in the list.
molecular target: Disintegrin and metalloproteinase domain-containing protein 17 (Homo sapiens); experiment: Inhibition of recombinant human tumor necrosis factor-alpha converting enzyme
Sequence (P78536 whole entry, the tested form may be a part): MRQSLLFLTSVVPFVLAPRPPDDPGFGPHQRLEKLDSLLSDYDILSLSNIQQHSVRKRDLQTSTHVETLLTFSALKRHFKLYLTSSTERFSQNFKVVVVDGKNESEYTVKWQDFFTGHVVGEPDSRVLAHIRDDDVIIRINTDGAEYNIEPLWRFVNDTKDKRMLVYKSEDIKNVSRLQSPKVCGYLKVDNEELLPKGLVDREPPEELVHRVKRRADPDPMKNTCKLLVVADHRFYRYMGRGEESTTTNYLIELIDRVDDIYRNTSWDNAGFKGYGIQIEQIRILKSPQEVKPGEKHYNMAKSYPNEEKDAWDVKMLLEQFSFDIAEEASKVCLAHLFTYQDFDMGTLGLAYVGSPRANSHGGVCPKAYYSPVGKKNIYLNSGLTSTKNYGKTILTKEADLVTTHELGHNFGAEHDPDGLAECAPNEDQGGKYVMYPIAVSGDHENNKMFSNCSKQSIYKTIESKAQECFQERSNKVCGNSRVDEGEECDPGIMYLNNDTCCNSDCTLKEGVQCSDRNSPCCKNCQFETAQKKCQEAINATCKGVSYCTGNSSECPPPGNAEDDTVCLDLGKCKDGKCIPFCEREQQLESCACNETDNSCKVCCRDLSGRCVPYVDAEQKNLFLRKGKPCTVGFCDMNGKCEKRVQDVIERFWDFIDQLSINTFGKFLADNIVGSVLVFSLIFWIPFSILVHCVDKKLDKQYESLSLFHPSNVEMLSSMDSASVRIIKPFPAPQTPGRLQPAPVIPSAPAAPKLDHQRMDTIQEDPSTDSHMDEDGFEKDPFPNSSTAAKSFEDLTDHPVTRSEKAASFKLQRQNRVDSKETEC
Remember the convention: pKi equals -log10 of concentration in molar.

So, CCOP(=O)(c1ccc(OC)cc1)N1Cc2ccccc2C[C@@H]1C(=O)NO (single isomer, unassigned) ? Its pKi was 8.15

So, CCOP(=O)(N[C@H](CC(C)C)C(=O)NO)c1ccc(OC)cc1 (stereo not given in full) ? Its pKi was 8.30

So, CCOP(=O)(N[C@H](CCC(=O)NCCc1ccccc1)C(=O)NO)c1ccc(OC)cc1 (stereo not given in full) ? Its pKi was 7.56

So, CCOP(=O)(N[C@@H](CC(C)C)C(=O)NO)c1ccc(OC)cc1 (stereo not given in full) ? Its pKi was 7.12

So, CCOP(=O)(N[C@@H](CCC(=O)NCCc1ccccc1)C(=O)NO)c1ccc(OC)cc1 (stereo not given in full) ? Its pKi was 8.00
